Source listed as patent US20230174484A1.

Target: human GPR39 receptor (Homo sapiens, UniProt O43194)
Construct: PC3 Cells, Expressing the Endogenous Human GPR39 Receptor; endogenous in cells
Sequence (O43194 whole entry): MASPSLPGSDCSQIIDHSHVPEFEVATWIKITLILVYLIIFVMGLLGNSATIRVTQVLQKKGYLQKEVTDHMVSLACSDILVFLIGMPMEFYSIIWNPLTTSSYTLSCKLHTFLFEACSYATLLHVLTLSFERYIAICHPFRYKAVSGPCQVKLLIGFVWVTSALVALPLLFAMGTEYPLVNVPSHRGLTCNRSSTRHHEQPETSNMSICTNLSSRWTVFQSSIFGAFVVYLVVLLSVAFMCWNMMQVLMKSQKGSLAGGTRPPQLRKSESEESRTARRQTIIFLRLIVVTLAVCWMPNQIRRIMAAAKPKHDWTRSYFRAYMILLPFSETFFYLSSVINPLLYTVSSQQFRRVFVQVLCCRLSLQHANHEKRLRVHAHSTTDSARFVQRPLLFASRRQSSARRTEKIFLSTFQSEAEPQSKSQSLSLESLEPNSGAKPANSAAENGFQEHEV
Experiment: Measurement of intracellular calcium response in PC3 cells (FLIPR), antagonism of the C3 agonist response
Settings: functional pKi (modified Cheng-Prusoff), inhibition of the C3 (TC-G 1008) response at EC90, 30 μM ZnCl2, read-out: fpKi activity
ENDPOINT: Ki

For reference, reported Ki for CC1CCN(c2cc(NC(=O)C3CC3)ccc2C(=O)N2CCC(C(F)(F)F)CC2)C1 (racemic) [Example 63c] stands at ≤ 50.1 nM

// recorded Ki for CN1CCN(C(=O)c2ccc(-c3nccn3C)cc2N2CCCC2)C(c2ccccc2)C1 (racemic) [Example 121] : 1260 to 6310 nM

Noted for CCCN1CCN(C(=O)c2ccc(NC(=O)C3CC3)cc2N2CCCCCC2)C(c2ccccc2)C1 (racemic) [Example 73c] : its Ki reads ≤ 50.1 nM

Reported Ki of CCCN1CCN(C(=O)c2ccc(NC(C)=O)cc2N2CCCCCC2)CC1 [Example 95] : 1260 to 6310 nM

Briefly, Ki measured for O=C(Nc1ccc(C(=O)N2CCCCC2)c(N2CCCCCC2)c1)C1CC1 [Example 35] : 63.1 to 251 nM

// recorded Ki for CN1CCN(C(=O)c2ccc(NC(=O)C3CC3)nc2N2CCCC(F)(F)C2)C(c2ccccc2)C1 (racemic) [Example 144] : 63.1 to 251 nM

The compound listed as CN1CCN(C(=O)c2ccc(NC(=O)C3CC3)cc2N2CCC(F)(F)C2)C(c2ccccc2)C1 (single isomer, unassigned) [Example 202a] has a reported Ki of 1260 to 6310 nM
